- Method description: activity coefficient (dimensionless); of the first substance listed, at infinite dilution; xn = mol fraction of the nth substance listed
- Stated conditions: 358.15 K; 100 kPa; Liquid; Chromatography; x1 = 0
Metric: activity coefficient

These solved cases illustrate the format of a correct answer.
CCO [ethanol] + CC(O)C(=O)[O-].CC[N+]1(C)CCCC1 :: 0.174
CCCCCCC [heptane] + CC(O)C(=O)[O-].CC[N+]1(C)CCCC1 :: 144
COC(C)(C)C [2-methoxy-2-methylpropane] + CC(O)C(=O)[O-].CC[N+]1(C)CCCC1 :: 17.7
C1COCCO1 [1,4-dioxane] + CC(O)C(=O)[O-].CC[N+]1(C)CCCC1 :: 2.55

1. C1CCOC1 [tetrahydrofuran] + CC(O)C(=O)[O-].CC[N+]1(C)CCCC1
2. c1ccsc1 [thiophene] + CC(O)C(=O)[O-].CC[N+]1(C)CCCC1
Q: For the pair 1 and 2 , which member has the lower activity coefficient number? Respond with the label that goes with your answer.
A: 2

A. CCCC(C)=O [pentan-2-one] + CC(O)C(=O)[O-].CC[N+]1(C)CCCC1
B. C1=CCCCC1 [cyclohexene] + CC(O)C(=O)[O-].CC[N+]1(C)CCCC1
Q: For the pair A and B , which member has the lower activity coefficient number? Respond with the label that goes with your answer.
A: A

a. C#CCCCC [1-hexyne] + CC(O)C(=O)[O-].CC[N+]1(C)CCCC1
b. COC(C)=O [methyl ethanoate] + CC(O)C(=O)[O-].CC[N+]1(C)CCCC1
c. CCCO [propan-1-ol] + CC(O)C(=O)[O-].CC[N+]1(C)CCCC1
Q: Task for the reader: rank each entry by its activity coefficient, from the minimum upward. Answer by listing the labels in the requested order.
A: c, b, a
(c: 0.236, b: 3.25, a: 6.92)

###

- Method description: activity coefficient (dimensionless); of the first substance listed, at infinite dilution; xn = mol fraction of the nth substance listed
- Stated conditions: 388.15 K; 100 kPa; Liquid; Chromatography; x1 = 0
Metric: activity coefficient

CCCO [propan-1-ol] + CC(O)C(=O)[O-].CC[N+]1(C)CCCC1 :: 0.302

1. O [water] + CC(O)C(=O)[O-].CC[N+]1(C)CCCC1
2. CO [methanol] + CC(O)C(=O)[O-].CC[N+]1(C)CCCC1
3. CCCCO [butan-1-ol] + CC(O)C(=O)[O-].CC[N+]1(C)CCCC1
4. CCO [ethanol] + CC(O)C(=O)[O-].CC[N+]1(C)CCCC1
Q: Task for the reader: rank each entry by its activity coefficient, from the minimum upward. Answer by listing the labels in the requested order.
A: 1, 2, 4, 3

###

- Method description: activity coefficient (dimensionless); of the first substance listed, at infinite dilution; xn = mol fraction of the nth substance listed
- Stated conditions: 338.15 K; 100 kPa; Liquid; Chromatography; x1 = 0
Metric: activity coefficient

These solved cases illustrate the format of a correct answer.
Cc1ccccc1 [toluene] + CC(O)C(=O)[O-].CC[N+]1(C)CCCC1 :: 5.62
C=CCCCCCCCC [1-decene] + CC(O)C(=O)[O-].CC[N+]1(C)CCCC1 :: 284
CCC(C)(C)OC [2-methoxy-2-methylbutane] + CC(O)C(=O)[O-].CC[N+]1(C)CCCC1 :: 26.8

1. COC(C)=O [methyl ethanoate] + CC(O)C(=O)[O-].CC[N+]1(C)CCCC1
2. C#CCCCC [1-hexyne] + CC(O)C(=O)[O-].CC[N+]1(C)CCCC1
Q: I'd appreciate it if you could identify which of 1 and 2 has the greater activity coefficient. Respond with the label that goes with your answer.
A: 2
(2: 6.21, 1: 3.1)

###

- Method description: activity coefficient (dimensionless); of the first substance listed, at infinite dilution; xn = mol fraction of the nth substance listed
- Stated conditions: 338.15 K; 100 kPa; Liquid; Chromatography; x1 = 0
Metric: activity coefficient

These solved cases illustrate the format of a correct answer.
CCOC(C)(C)C [2-ethoxy-2-methylpropane] + CC(O)C(=O)[O-].CC[N+]1(C)CCCC1 :: 42.5
CCCCCCCCCC [decane] + CC(O)C(=O)[O-].CC[N+]1(C)CCCC1 :: 597
CCC(C)CC [3-methylpentane] + CC(O)C(=O)[O-].CC[N+]1(C)CCCC1 :: 94.5
c1ccccc1 [benzene] + CC(O)C(=O)[O-].CC[N+]1(C)CCCC1 :: 3.04
CCc1ccccc1 [ethylbenzene] + CC(O)C(=O)[O-].CC[N+]1(C)CCCC1 :: 9.45

a. CCCCCC [hexane] + CC(O)C(=O)[O-].CC[N+]1(C)CCCC1
b. C#CCCCCCC [1-octyne] + CC(O)C(=O)[O-].CC[N+]1(C)CCCC1
Q: I'd appreciate it if you could identify which of a and b has the greater activity coefficient. Respond with the label that goes with your answer.
A: a

A. CCCCCCCCC [nonane] + CC(O)C(=O)[O-].CC[N+]1(C)CCCC1
B. C1CCCCCCC1 [cyclooctane] + CC(O)C(=O)[O-].CC[N+]1(C)CCCC1
C. CCOC(C)=O [ethyl acetate] + CC(O)C(=O)[O-].CC[N+]1(C)CCCC1
Q: Order field: activity coefficient | Direction: descending (largest first) Answer by listing the labels in the requested order.
A: A, B, C
(A: 389, B: 77.2, C: 5.23)

A. C=CCCCCC [1-heptene] + CC(O)C(=O)[O-].CC[N+]1(C)CCCC1
B. C1COCCO1 [1,4-dioxane] + CC(O)C(=O)[O-].CC[N+]1(C)CCCC1
Q: I'd appreciate it if you could identify which of A and B has the greater activity coefficient. Respond with the label that goes with your answer.
A: A
(A: 75.2, B: 2.4)

P. C#CCCC [1-pentyne] + CC(O)C(=O)[O-].CC[N+]1(C)CCCC1
Q. C1=CCCCC1 [cyclohexene] + CC(O)C(=O)[O-].CC[N+]1(C)CCCC1
Q: I'd appreciate it if you could identify which of P and Q has the greater activity coefficient. Respond with the label that goes with your answer.
A: Q
(Q: 20.2, P: 3.95)

###

- Method description: activity coefficient (dimensionless); of the first substance listed, at infinite dilution; xn = mol fraction of the nth substance listed
- Stated conditions: 368.15 K; 100 kPa; Liquid; Chromatography; x1 = 0
Metric: activity coefficient

CCC(C)(C)OC [2-methoxy-2-methylbutane] + CC(O)C(=O)[O-].CC[N+]1(C)CCCC1 :: 25.8

P. C1CCOC1 [tetrahydrofuran] + CC(O)C(=O)[O-].CC[N+]1(C)CCCC1
Q. CCCCCC [hexane] + CC(O)C(=O)[O-].CC[N+]1(C)CCCC1
R. CCc1ccccc1 [ethylbenzene] + CC(O)C(=O)[O-].CC[N+]1(C)CCCC1
S. CCCCCCC [heptane] + CC(O)C(=O)[O-].CC[N+]1(C)CCCC1
T. C#CCCCCCC [1-octyne] + CC(O)C(=O)[O-].CC[N+]1(C)CCCC1
Q: Task for the reader: rank each entry by its activity coefficient, from the minimum upward. Answer by listing the labels in the requested order.
A: P, R, T, Q, S

###

- Method description: activity coefficient (dimensionless); of the first substance listed, at infinite dilution; xn = mol fraction of the nth substance listed
- Stated conditions: 408.15 K; 100 kPa; Liquid; Chromatography; x1 = 0
Metric: activity coefficient

These solved cases illustrate the format of a correct answer.
CCCCO [butan-1-ol] + CC(O)C(=O)[O-].CC[N+]1(C)CCCC1 :: 0.486
CCCO [propan-1-ol] + CC(O)C(=O)[O-].CC[N+]1(C)CCCC1 :: 0.349

A. CCO [ethanol] + CC(O)C(=O)[O-].CC[N+]1(C)CCCC1
B. CO [methanol] + CC(O)C(=O)[O-].CC[N+]1(C)CCCC1
C. O [water] + CC(O)C(=O)[O-].CC[N+]1(C)CCCC1
Q: Task for the reader: rank each entry by its activity coefficient, from the minimum upward. Answer by listing the labels in the requested order.
A: C, B, A

###

- Method description: activity coefficient (dimensionless); of the first substance listed, at infinite dilution; xn = mol fraction of the nth substance listed
- Stated conditions: 348.15 K; 100 kPa; Liquid; Chromatography; x1 = 0
Metric: activity coefficient

These solved cases illustrate the format of a correct answer.
CCCCCCCCCC [decane] + CC(O)C(=O)[O-].CC[N+]1(C)CCCC1 :: 542
C1CCOC1 [tetrahydrofuran] + CC(O)C(=O)[O-].CC[N+]1(C)CCCC1 :: 3.68
C1CCCCC1 [cyclohexane] + CC(O)C(=O)[O-].CC[N+]1(C)CCCC1 :: 40.6
CC1CCCCC1 [methylcyclohexane] + CC(O)C(=O)[O-].CC[N+]1(C)CCCC1 :: 65.7
C#CCCC [1-pentyne] + CC(O)C(=O)[O-].CC[N+]1(C)CCCC1 :: 4.2
CCC(=O)OC [methyl propanoate] + CC(O)C(=O)[O-].CC[N+]1(C)CCCC1 :: 4.97
c1ccccc1 [benzene] + CC(O)C(=O)[O-].CC[N+]1(C)CCCC1 :: 3.14
Cc1ccc(C)cc1 [1,4-dimethylbenzene] + CC(O)C(=O)[O-].CC[N+]1(C)CCCC1 :: 10.4

a. C1CCCCCCC1 [cyclooctane] + CC(O)C(=O)[O-].CC[N+]1(C)CCCC1
b. COC(C)=O [methyl ethanoate] + CC(O)C(=O)[O-].CC[N+]1(C)CCCC1
c. CCC(=O)CC [pentan-3-one] + CC(O)C(=O)[O-].CC[N+]1(C)CCCC1
d. CCC(C)(C)OC [2-methoxy-2-methylbutane] + CC(O)C(=O)[O-].CC[N+]1(C)CCCC1
e. C#CCCCCCC [1-octyne] + CC(O)C(=O)[O-].CC[N+]1(C)CCCC1
Q: Order field: activity coefficient | Direction: descending (largest first) Answer by listing the labels in the requested order.
A: a, d, e, c, b
